The reported numbers originate from ChEMBL document CHEMBL1157169.

assay-overview: Aqueous stability assessed as decomposition time at pH 11.5
Type: physicochemical
assay-conditions: buffer
Hi there, I'd appreciate the recorded Time for every entry that follows.
One number for each entry, in h.

Consider the reported Time for these compounds:
Using known records, supply Time for CC1(C)N(O)C(c2ccco2)=[N+]([O-])C1(C)C
18

Using known records, supply Time for CC1(C)N(O)C(CCl)=[N+]([O-])C1(C)C
2.5

Using known records, supply Time for CC1(C)N(O)C=[N+]([O-])C1(C)C
2.5

Using known records, supply Time for CC1(C)N(O)C(C(=O)O)=[N+]([O-])C1(C)C
2.5

# ---- query compound ----
Using known records, supply Time for CC1(C)N(O)C(c2cccnc2)=[N+]([O-])C1(C)C
18
